molecular target: α4β1 integrin (Homo sapiens, UniProt P05556+P13612); test: a4b1 IC50 (inhibition of α4β1 integrin; no method described)
Sequence (P13612 34-1032): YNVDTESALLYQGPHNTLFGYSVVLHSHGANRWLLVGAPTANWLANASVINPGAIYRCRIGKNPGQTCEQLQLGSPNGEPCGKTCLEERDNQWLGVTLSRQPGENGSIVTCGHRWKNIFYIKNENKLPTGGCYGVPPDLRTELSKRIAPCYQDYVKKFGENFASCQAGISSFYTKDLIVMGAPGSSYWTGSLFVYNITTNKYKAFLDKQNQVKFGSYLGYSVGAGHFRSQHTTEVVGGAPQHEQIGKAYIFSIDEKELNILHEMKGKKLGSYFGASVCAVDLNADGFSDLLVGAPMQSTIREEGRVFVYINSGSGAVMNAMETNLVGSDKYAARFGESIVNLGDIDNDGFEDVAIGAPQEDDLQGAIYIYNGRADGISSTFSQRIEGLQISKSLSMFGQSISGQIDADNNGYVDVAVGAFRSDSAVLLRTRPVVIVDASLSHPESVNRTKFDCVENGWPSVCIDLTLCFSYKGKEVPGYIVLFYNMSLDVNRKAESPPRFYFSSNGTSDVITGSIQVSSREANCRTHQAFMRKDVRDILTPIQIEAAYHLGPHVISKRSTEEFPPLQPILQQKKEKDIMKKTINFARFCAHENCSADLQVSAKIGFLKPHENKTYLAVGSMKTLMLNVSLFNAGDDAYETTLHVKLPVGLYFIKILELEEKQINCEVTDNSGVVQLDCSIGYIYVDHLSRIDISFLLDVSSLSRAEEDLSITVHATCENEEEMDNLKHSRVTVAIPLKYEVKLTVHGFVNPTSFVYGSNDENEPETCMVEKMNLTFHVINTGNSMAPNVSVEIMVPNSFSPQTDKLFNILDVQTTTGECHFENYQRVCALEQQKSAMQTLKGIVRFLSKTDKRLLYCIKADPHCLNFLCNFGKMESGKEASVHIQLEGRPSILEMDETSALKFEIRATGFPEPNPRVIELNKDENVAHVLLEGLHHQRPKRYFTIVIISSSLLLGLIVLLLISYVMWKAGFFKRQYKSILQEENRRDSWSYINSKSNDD
Sequence (P05556 21-798): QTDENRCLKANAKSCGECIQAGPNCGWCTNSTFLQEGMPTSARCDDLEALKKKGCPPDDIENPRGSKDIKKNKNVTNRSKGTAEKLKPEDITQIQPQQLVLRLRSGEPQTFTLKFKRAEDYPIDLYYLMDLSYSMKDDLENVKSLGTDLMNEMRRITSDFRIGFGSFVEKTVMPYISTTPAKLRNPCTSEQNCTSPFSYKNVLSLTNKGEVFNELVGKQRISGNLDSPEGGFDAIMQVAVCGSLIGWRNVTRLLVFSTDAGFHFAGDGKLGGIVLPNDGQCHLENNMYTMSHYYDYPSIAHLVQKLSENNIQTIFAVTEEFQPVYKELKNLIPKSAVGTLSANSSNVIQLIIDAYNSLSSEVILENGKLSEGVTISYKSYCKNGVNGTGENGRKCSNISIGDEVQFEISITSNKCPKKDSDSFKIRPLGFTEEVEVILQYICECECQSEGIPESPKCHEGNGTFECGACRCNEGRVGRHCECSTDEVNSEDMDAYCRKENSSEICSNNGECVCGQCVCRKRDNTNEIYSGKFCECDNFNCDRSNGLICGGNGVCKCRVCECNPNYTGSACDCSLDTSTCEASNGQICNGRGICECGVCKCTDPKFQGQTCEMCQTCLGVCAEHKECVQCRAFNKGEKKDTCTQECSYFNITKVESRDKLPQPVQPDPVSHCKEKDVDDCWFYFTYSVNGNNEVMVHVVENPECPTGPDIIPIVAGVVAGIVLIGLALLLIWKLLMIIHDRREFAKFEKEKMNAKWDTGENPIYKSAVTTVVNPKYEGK
pIC50: −log10 of the molar value.
readout_type: pIC50

These solved cases illustrate the format of a correct answer.
[[record]]
molecule = "Cc1ccccc1Oc1cccc([C@H](CC(=O)O)NC(=O)Nc2c(O)ccn(C)c2=O)c1 [Compound 3-67]"
assayed_target = "α4β1 integrin (Homo sapiens, UniProt P05556+P13612)"
readout_type = "pIC50"
recorded_measurement = "> 7.70"

[[record]]
molecule = "COc1ccccc1Oc1ccc([C@H](CC(=O)O)NC(=O)Nc2c(O)ccn(C)c2=O)cc1 [Compound 3-72]"
assayed_target = "α4β1 integrin (Homo sapiens, UniProt P05556+P13612)"
readout_type = "pIC50"
recorded_measurement = "> 6.70"

[[record]]
molecule = "COc1cccc(Oc2ccc([C@H](CC(=O)O)NC(=O)Nc3c(O)ccn(C)c3=O)cc2)c1 [Compound 3-73]"
assayed_target = "α4β1 integrin (Homo sapiens, UniProt P05556+P13612)"
readout_type = "pIC50"
recorded_measurement = "> 6.70"

[[record]]
molecule = "COc1ccccc1Cc1cccc([C@H](CC(=O)O)NC(=O)Nc2c(O)ccn(C)c2=O)c1 [Compound 3-92]"
assayed_target = "α4β1 integrin (Homo sapiens, UniProt P05556+P13612)"
readout_type = "pIC50"
recorded_measurement = "> 7.70"

[[record]]
molecule = "Cc1cn(C)c(=O)c(NC(=O)NC(CC(=O)O)c2cccc(Cc3ccc(Cl)cc3)c2)c1O (stereo not shown) [Compound 1-26]"
assayed_target = "α4β1 integrin (Homo sapiens, UniProt P05556+P13612)"
readout_type = "pIC50"
recorded_measurement = "< 6.70"

[[record]]
molecule = "Cc1ccccc1Cc1ccc([C@H](CC(=O)O)NC(=O)Nc2c(O)ccn(C)c2=O)s1 [Compound 3-95]"
assayed_target = "α4β1 integrin (Homo sapiens, UniProt P05556+P13612)"
readout_type = "pIC50"
recorded_measurement = "> 7.70"

[[record]]
molecule = "Cc1cccc(Cc2cccc([C@H](CC(=O)O)NC(=O)Nc3c(O)c(C)cn(C)c3=O)c2)c1 [Compound 1-29]"
assayed_target = "α4β1 integrin (Homo sapiens, UniProt P05556+P13612)"
readout_type = "pIC50"
recorded_measurement = "> 6.70"

[[record]]
molecule = "Cc1ccc(Oc2ccc([C@H](CC(=O)O)NC(=O)Nc3c(O)ccn(C)c3=O)cc2)cc1 [Compound 3-75]"
assayed_target = "α4β1 integrin (Homo sapiens, UniProt P05556+P13612)"
readout_type = "pIC50"
recorded_measurement = "> 6.70"

[[record]]
molecule = "Cc1cccc(C)c1Cc1cccc([C@H](CC(=O)O)NC(=O)Nc2c(O)ccn(C)c2=O)c1 [Compound 3-94]"
assayed_target = "α4β1 integrin (Homo sapiens, UniProt P05556+P13612)"
readout_type = "pIC50"
recorded_measurement = "> 7.70"

[[record]]
molecule = "Cc1ccc(Cc2ccc([C@H](CC(=O)O)NC(=O)Nc3c(O)ccn(C)c3=O)cc2)cc1 [Compound 3-79]"
assayed_target = "α4β1 integrin (Homo sapiens, UniProt P05556+P13612)"
readout_type = "pIC50"
recorded_measurement = "< 6.70"


Now let's try a different one.
Query (molecule): Cc1ccc(Cc2cccc([C@H](CC(=O)O)NC(=O)Nc3c(O)c(C)cn(C)c3=O)c2)cc1 [Compound 1-30] ; field requested: pIC50
> 6.70
